Form field: viability at 24 h, 20 µM (one value per entry).
assay: Cytotoxicity against LPS-induced mouse BV2 cells assessed as cell viability at 20 uM pretreated for 15 mins followed by LPS-stimulation measured after 24 hrs by MTT assay relative to control; assay type: cell-based, BV-2; details: LPS-stimulated BV2 cells, read-out: Activity
Just the number please, in %, no unit attached.

>  <compound structure>
C[C@@H]1[C@@H](O)C[C@]2(O)CC3=C(CC(C)(C)C3=O)[C@]12C

>  <viability at 24 h, 20 µM (%)>
97

$$$$
>  <compound structure>
C=C1C(=O)C=C2C[C@@]3(O)CC(C)(C)C[C@H]3[C@]12C

>  <viability at 24 h, 20 µM (%)>
12

$$$$

Let us examine a further case.
Data request: Entry `C[C@H]1C(=O)C=C2C=C3[C@@H](O)C(C)(C)C[C@@]3(O)[C@@]21C` has what viability at 24 h, 20 µM?
Data returned: 71

* * *

Form field: viability at 24 h, 20 µM (one value per entry).
assay: Cytotoxicity against LPS-induced mouse BV2 cells assessed as cell viability at 20 uM pretreated for 15 mins followed by LPS-stimulation measured after 24 hrs by MTT assay relative to control; type: cell-based, BV-2; details: LPS-stimulated BV2 cells, read-out: Activity
Returns: string containing the numeric result and its unit.

Solved entries (count: 8):
>  <compound structure>
C[C@@H]1[C@@H](O)C[C@]2(O)[C@H](O)C3=CC(C)(C)C[C@H]3[C@]12C

>  <viability at 24 h, 20 µM>
87%

$$$$
>  <compound structure>
C=C1[C@H](O)C[C@]2(O)C[C@]3(O)CC(C)(C)C[C@]3(O)[C@]12C

>  <viability at 24 h, 20 µM>
67%

$$$$
>  <compound structure>
C=C1C(=O)C[C@]2(O)[C@H](O)C3=C(CC(C)(C)C3=O)[C@]12C

>  <viability at 24 h, 20 µM>
69%

$$$$
>  <compound structure>
C[C@@H]1[C@@H](O)C[C@]2(O)[C@H](O)[C@H]3CC(C)(C)C[C@H]3[C@]12C

>  <viability at 24 h, 20 µM>
83%

$$$$
>  <compound structure>
C=C1C(=O)C[C@@]2(OC)C[C@]3(O)CC(C)(C)C[C@@H]3[C@]12C

>  <viability at 24 h, 20 µM>
11%

$$$$
>  <compound structure>
C[C@@H]1[C@@H](O)C[C@]2(O)C=C3C(=CC(C)(C)[C@@H]3O)[C@]12C

>  <viability at 24 h, 20 µM>
93%

$$$$
>  <compound structure>
C=C1C(=O)C=C2C=C3[C@@H](O)C(C)(C)C[C@@]3(O)[C@]12C

>  <viability at 24 h, 20 µM>
39%

$$$$
>  <compound structure>
C[C@@H]1C(=O)C[C@]2(O)C[C@@]3(O)CC(C)(C)C[C@H]3[C@]12C

>  <viability at 24 h, 20 µM>
83%

$$$$

Data request: Entry `C[C@H]1C(=O)C=C2C=C3C(=O)C(C)(C)C[C@@]3(O)[C@@]21C` has what viability at 24 h, 20 µM?
Data returned: 11%
